- Protocol Notes: Protein binding in nu/nu mouse plasma at 5 uM measured after 4 hrs by LC-MS/MS analysis
- Format: ADME, cell-free
- Test Parameters: read-out: PPB (converted)
Value Type: fraction unbound at 4 h, 5 µM

>>> print(df.to_string())
                    structure_smiles_string  observed_measurement
0  CC(=O)N1CCc2c(c(Nc3ccc(-c4cnn(C)c4)cc3F)nn2[C@@H]2CCOC2)C1                  0.16

----------
- Experimental System: CREB-binding protein/Histone acetyltransferase p300 (Homo sapiens, UniProt Q09472+Q92793)
- Protocol Notes: Displacement of biotinylated ligand from recombinant His-tagged CBP/EP300 (unknown origin) measured after 10 mins by TR-FRET assay
- Assay type: protein assay
Decision: IC50 beneath 100 nM gives label 1; IC50 meeting or exceeding 100 nM gives label 0.

>>> print(df.to_string())
                     structure_smiles_string  group_label
 0  COC(=O)c1ccc(Nc2n[nH]c3c2CN(C(C)=O)CC3)cc1      label 0
 1     CCC(=O)N1CCc2[nH]nc(Nc3cccc(C)c3)c2C1      label 0
 2  Cc1cccc(Nc2n[nH]c3c2CN(C(=O)C(F)(F)F)CC3)c1      label 0
 3    CCCC(=O)N1CCc2[nH]nc(Nc3cccc(C)c3)c2C1      label 0
 4  CCCNC(=O)c1cccc(Nc2nn(CC3CC3)c3c2CN(C(C)=O)CC3)c1      label 1
 5     COc1cccc(Nc2n[nH]c3c2CN(C(C)=O)CC3)c1      label 0
 6  Cc1cccc(Nc2n[nH]c3c2CN(S(C)(=O)=O)CC3)c1      label 0
 7  CC(=O)N1CCc2c(c(Nc3cccc(-c4ccccn4)c3)nn2CC2CC2)C1      label 1
 8        CC(=O)N1CCc2[nH]nc(Nc3ccccc3C)c2C1      label 0
 9  CC(=O)N1CCc2c(c(Nc3ccc(-c4cnn(C)c4)cc3)nn2C2COC2)C1      label 1
10  CC(=O)N1CCc2c(c(Nc3cccc(C(=O)NC(C)C)c3)nn2CC2CC2)C1      label 1
11    CCCn1nc(Nc2cccc(C)c2)c2c1CCN(C(C)=O)C2      label 1
12  CCNC(=O)c1cccc(Nc2nn(CC3CC3)c3c2CN(C(C)=O)CC3)c1      label 1
13  COC(=O)c1cccc(Nc2n[nH]c3c2CN(C(C)=O)CC3)c1      label 0
14     CCc1ccc(Nc2n[nH]c3c2CN(C(C)=O)CC3)cc1      label 0
15      CC(=O)N1CCc2[nH]nc(Nc3ccc(C)cc3)c2C1      label 0
16        CC(=O)N1CCc2[nH]nc(Nc3ccccc3F)c2C1      label 0
17      CC(=O)N1CCc2[nH]nc(Nc3ccc(F)cc3)c2C1      label 0
18      CC(=O)N1CCc2[nH]nc(Nc3cccc(C)c3)c2C1      label 0

// data source = ChEMBL document CHEMBL3864133
